Biological target: NHERF2_2, Q15599
Sequence (Q15599 142-238): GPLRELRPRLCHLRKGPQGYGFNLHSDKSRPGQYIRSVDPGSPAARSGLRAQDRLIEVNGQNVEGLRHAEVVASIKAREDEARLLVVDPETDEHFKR
Test: holdup assay
Set-up: key: below the threshold = too weak to quantify, mostly under pKd 3.1 to 4
Settings: plain residues with an end cap or a label only (N-terminal biotin on a linker: ttds)
Readout Kind: pKd

binder="RLPKIKETTV [FRMPD4, Q14CM0]" result="below the threshold"
binder="SKPTRRETEV [HPV35-E6, P27228]" result="below the threshold"
binder="SSLQSLETSV [ATP2B4, P23634]" result=3.84
binder="VDFPPKESSL [ACVR2A, P27037]" result=3.77
binder="RLQRRRETQV [HPV18-E6, P06463]" result="below the threshold"
binder="SGSRPSATVV [HPV73-E6, Q82005]" result="below the threshold"
binder="FHPLGADSQV [SLC2A1, P11166]" result="below the threshold"
binder="RPLPRKVSQL [DOCK4, Q8N1I0]" result="below the threshold"
